Please provide measured pEC50 for the entries that follow.
- Tested on: ring stage parasites
- Protocol: Parasite growth potency assay, 72 hours, LDH readout
- Assay type: cell-based
- Assay Conditions: 72 h, parasite growth measured by LDH assay after 72 hours at 37° C.; 0.7% rings, 2% haematocrit; read-out: EC50
Structures can show the parent of a compound that is named as a salt.
One number for each entry, as −log10 of the molar value.

- Molecule: "CCC1(CC)NC(=N)N(Cc2cc(F)cc(C(=O)N[C@H]3CCOc4ccccc43)c2)C(=O)C1C (stereo partly drawn) [Example 42, trifluoroacetate]"
  Measured Quantity: "pEC50"
  Test Result: 7.99

Batch request: pEC50 per item, same order as input.
1. CCC1(CC)CC(=O)N(Cc2cc(F)cc(C(=O)N[C@H]3CCOc4ccccc43)c2)C(=N)N1 [Example 12, trifluoroacetate]
2. CCC1(CC)CC(=O)N([C@@H](c2cccnc2)c2cccc(C(=O)N[C@@H]3c4ccccc4C[C@H]3O)c2)C(=N)N1 [Example 109B, trifluoroacetate]

[8.85, 7.64]

* * *

- Tested on: ring stage parasites
- Protocol: Parasite growth potency assay, 72 hours, LDH readout
- Assay type: cell-based
- Assay Conditions: 72 h, parasite growth measured by LDH assay after 72 hours at 37° C.; 0.7% rings, 2% haematocrit; read-out: EC50
Where a name gives a salt, the structure may show the parent alone.
Measured Quantity: EC50
Put down the number, then write its unit next to it.

- Compound: "CCC1(CC)CC(=O)N([C@H](CCOC)c2cccc(C(=O)N[C@@H]3c4ccccc4OC(C)(C)C3(C)O)c2)C(=N)N1 (stereo partly drawn)"
  EC50: "0.3 nM"
- Compound: "CCC1(CC)CC(=O)N([C@H](c2cncnc2)c2cccc(C(=O)N[C@H]3CC(C)(C)Oc4ccccc43)c2)C(=N)N1 (stereo in doubt) [Example 92B]"
  EC50: "0.9 nM"
- Compound: "CCC[C@H](c1cccc(C(=O)N[C@@H]2c3ccccc3C[C@H]2O)c1)N1C(=N)NC(CC)(CC)CC1=O [Example 102, trifluoroacetate]"
  EC50: "0.5 nM"
- Compound: "CCC[C@H](c1cccc(C(=O)N[C@H]2c3ccccc3OC(C)(C)[C@@H]2O)c1)N1C(=N)NC(CC)(CC)CC1=O [Example 119B, trifluoroacetate]"
  EC50: "34 nM"
- Compound: "CC[C@]1(CC(C)C)CC(=O)N(Cc2cc(F)cc(C(=O)N[C@H]3CCOc4ccccc43)c2)C(=N)N1 [Example 46, trifluoroacetate]"
  EC50: "10.4 nM"

Batch request: EC50 per item, same order as input.
1. CCC1(CC)CC(=O)N([C@H](C)c2cccc(C(=O)N[C@@H]3c4ccccc4C[C@@]3(C)O)c2)C(=N)N1 [Example 192A]
2. CC[C@H](c1cccc(C(=O)N[C@@H]2c3ccccc3OC[C@@]2(C)O)c1)N1C(=N)NC(CC)(CC)CC1=O [Example 206A]
3. CCC1(CC)CC(=O)N([C@H](CCOC)c2cc(F)cc(C(=O)N[C@H]3c4ccccc4OC(C)(C)[C@@H]3O)c2)C(=N)N1 (stereo in doubt) [Example 129B, trifluoroacetate]
4. CC(C)[C@]1(C)CC(=O)N(Cc2cc(F)cc(C(=O)N[C@@H]3c4ccccc4C[C@H]3O)c2)C(=N)N1 [Example 30, trifluoroacetate]
5. CCC[C@H](c1cccc(C(=O)N[C@H]2CCc3ccccc32)c1)N1C(=N)NC(CC)(CC)CC1=O [Example 76, trifluoroacetate]
6. CCC1(CC)CC(=O)N([C@H](C)c2cccc(C(=O)N[C@@H]3c4ccccc4C[C@H]3O)c2)C(=N)N1 [Example 33, trifluoroacetate]
7. CCC1(CC)CC(=O)N([C@H](CCOC)c2cccc(C(=O)N[C@@H]3c4ccccc4OC[C@H]3O)c2)C(=N)N1 [Example 152B, trifluoroacetate]
8. CCC1(CC)CC(=O)N([C@H](CCOC)c2cccc(C(=O)N[C@H]3CCOc4ccccc43)c2)C(=N)N1 [Example 56, trifluoroacetate]

1: 2.1 nM; 2: 1 nM; 3: 87 nM; 4: 3.1 nM; 5: 0.9 nM; 6: 2.8 nM; 7: 2 nM; 8: 0.5 nM

Origin of the recorded values: patent US12629374B2
